Biological target: human muscle nicotinic acetylcholine receptor (nAChR), adult form, (α1)2β1δε (Homo sapiens, UniProt P02708+Q04844+Q07001)
Construct: full-length untagged subunits; CMV-alpha1 plasmid plus EF1alpha beta1-delta-epsilon triple plasmid, transient in HEK293; heteropentamer; with Acetylcholine receptor subunit beta
Sequence (P02708 21-457): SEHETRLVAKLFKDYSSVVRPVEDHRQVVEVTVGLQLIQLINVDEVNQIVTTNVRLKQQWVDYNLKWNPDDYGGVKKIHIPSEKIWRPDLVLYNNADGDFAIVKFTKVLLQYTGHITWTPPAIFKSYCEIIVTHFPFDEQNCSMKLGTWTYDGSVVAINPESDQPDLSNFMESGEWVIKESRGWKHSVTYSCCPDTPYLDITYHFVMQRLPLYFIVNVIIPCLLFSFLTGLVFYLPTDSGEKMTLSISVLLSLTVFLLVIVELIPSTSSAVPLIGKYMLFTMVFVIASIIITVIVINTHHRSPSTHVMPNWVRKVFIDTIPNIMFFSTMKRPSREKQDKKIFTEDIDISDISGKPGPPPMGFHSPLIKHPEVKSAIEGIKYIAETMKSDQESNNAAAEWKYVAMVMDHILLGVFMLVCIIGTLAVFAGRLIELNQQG
Sequence (Q07001 22-517): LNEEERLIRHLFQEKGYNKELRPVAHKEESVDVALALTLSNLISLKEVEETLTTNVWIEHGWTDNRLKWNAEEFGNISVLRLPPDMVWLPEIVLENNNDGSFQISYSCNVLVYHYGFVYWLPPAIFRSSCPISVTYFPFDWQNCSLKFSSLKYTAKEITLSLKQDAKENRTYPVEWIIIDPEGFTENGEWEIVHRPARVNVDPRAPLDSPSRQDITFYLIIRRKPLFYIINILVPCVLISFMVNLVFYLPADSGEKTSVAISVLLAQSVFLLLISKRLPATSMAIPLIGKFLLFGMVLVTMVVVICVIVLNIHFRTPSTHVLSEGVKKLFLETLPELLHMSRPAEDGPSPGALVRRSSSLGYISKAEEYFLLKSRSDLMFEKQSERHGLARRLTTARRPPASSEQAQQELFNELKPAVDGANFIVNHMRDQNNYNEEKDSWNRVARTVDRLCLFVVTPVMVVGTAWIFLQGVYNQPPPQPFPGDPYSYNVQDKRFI
Sequence (Q04844 21-493): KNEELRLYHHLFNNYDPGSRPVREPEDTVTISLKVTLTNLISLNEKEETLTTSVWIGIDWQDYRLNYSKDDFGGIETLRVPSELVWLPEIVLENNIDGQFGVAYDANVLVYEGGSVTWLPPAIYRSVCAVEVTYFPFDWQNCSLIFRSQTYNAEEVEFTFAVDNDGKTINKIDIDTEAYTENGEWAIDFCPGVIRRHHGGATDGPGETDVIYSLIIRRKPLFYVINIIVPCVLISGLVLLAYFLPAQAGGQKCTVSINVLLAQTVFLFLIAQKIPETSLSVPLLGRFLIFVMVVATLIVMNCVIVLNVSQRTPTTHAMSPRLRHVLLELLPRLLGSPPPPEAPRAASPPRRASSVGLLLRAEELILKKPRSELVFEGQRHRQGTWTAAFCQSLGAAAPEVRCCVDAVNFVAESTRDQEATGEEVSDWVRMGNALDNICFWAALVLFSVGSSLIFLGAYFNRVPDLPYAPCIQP
Sequence (P11230 24-501 partner): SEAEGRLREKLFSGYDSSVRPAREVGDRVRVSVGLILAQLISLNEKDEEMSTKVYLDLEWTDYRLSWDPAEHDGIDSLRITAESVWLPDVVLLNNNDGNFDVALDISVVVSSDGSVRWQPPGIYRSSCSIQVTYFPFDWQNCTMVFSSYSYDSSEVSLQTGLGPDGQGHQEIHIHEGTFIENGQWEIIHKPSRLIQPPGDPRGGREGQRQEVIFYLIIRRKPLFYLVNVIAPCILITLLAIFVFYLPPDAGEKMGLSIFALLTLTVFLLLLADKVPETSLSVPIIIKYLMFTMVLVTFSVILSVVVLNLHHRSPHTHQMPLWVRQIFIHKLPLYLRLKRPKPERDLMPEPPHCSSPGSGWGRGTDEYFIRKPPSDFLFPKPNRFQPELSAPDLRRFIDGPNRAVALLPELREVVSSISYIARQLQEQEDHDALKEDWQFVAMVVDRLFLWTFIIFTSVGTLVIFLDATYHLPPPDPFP
Assay: Fluo-4 Ca2+ flux, FLIPR, inhibition of epibatidine response
metric: IC50 (µM)
// note: answer is a bare numeric in µM

Prompt: Quick one: IC50 of COc1cc2c3cc1Oc1cc(ccc1O)C[C@@H]1c4c(cc(OC)c(O)c4Oc4ccc(cc4)C[C@@H]3N(C)CC2)CC[N+]1(C)C [tubocurarine] ?
Completion: 3.2
